The reader will find reported Pre-emergence action against Abutilon theophrasti (ABUTH) values listed item by item below.
System: Abutilon theophrasti (ABUTH)
Experiment: Herbicidal pre-emergence action, test C (Table C5)
Format: in vivo
Conditions: dosage 1280 g/ha; visual scoring after about 3 weeks; 100% = plants have died, 0% = like control plants
Report the figure along with its unit, number first.

Past entries and their recorded results:
FC(F)c1cc(-c2ccc(Br)cc2Oc2ccc(Cl)cn2)on1 [Example 1-62]    90%
FC(F)c1cc(-c2ccccc2Oc2ccc(Cl)cn2)on1 [Example 1-35]    100%
N#Cc1ccc(Oc2cccc(F)c2-c2cc(C(F)(F)F)on2)nc1 [Example 1-3]    100%
Cc1ccnc(-c2ccccc2Oc2ccc(Cl)cn2)c1 [Example 1-81]    100%
Cc1cc(C)c(-c2cc(C(F)F)no2)c(Oc2ncc(Cl)cc2F)c1 [Example 1-79]    90%

What value of Pre-emergence action against Abutilon theophrasti (ABUTH) on Abutilon theophrasti (ABUTH) does Cc1cc(F)c(-c2cc(C(F)F)no2)c(Oc2ncc(Cl)cc2F)c1 [Example 1-89] have?
90%

# returns recorded Pre-emergence action against Abutilon theophrasti (ABUTH) (system: Abutilon theophrasti (ABUTH)) for N#Cc1ccc(Oc2cccc(F)c2-c2cc(C(F)F)on2)nc1 [Example 1-11]
100%
